target: T1, human MICA008 on cells (human); experiment: flow cytometry, HeLa cells (MICA008)
T1 construct: whole, on cells; also called CHO-MICA008; C1R-MICA008
T1 sequence (Q29983 whole entry): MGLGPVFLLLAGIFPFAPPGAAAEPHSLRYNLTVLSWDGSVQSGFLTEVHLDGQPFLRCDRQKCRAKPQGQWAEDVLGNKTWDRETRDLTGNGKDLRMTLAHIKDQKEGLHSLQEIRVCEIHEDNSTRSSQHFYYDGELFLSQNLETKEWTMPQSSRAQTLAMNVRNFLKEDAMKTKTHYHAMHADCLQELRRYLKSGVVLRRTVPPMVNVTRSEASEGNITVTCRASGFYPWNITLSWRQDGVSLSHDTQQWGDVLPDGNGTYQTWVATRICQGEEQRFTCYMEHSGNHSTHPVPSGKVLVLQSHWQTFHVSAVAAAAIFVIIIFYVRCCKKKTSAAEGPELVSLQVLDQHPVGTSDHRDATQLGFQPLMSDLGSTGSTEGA
Please provide measured EC50 for the entries that follow.
One number for each entry, in µg/mL.

binder | unit spec | EC50
#39 (antibody, human IgG1, V domains shown, also called PL114G03; Hit ID 39) VH: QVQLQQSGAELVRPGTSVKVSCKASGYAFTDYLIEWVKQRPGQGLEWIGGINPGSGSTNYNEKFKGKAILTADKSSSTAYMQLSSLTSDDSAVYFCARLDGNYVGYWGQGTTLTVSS VL: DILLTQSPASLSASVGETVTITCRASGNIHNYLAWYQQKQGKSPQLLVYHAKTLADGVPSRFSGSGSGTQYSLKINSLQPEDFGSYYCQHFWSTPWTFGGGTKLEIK | µg/mL | 4.27

Let us examine a further case.
Entry #38 (antibody, human IgG1, V domains shown, also called PL114H02; Hit ID 38) VH: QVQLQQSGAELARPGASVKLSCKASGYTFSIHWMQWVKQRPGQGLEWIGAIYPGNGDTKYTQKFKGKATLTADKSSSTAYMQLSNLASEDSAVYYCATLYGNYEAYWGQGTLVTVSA VL: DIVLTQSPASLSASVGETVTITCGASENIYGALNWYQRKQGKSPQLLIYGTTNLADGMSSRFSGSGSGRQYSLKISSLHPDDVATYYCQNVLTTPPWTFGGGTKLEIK : reported EC50 = ?
1.85
